# system-tested: recombinant human NGF protein (human, UniProt P01138 122-241)
# Sequence (P01138 122-241 limits assumed): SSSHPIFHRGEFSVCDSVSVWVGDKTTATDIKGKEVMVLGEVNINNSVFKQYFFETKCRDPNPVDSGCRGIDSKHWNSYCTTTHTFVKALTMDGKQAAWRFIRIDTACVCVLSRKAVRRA
# protocol: cell-based or functional assay
Provide the recorded IC50, inhibition of NGF-induced proliferation of TF-1 cell for the entries that follow.
State just the number; it will be interpreted in nM.

For the binder humanized anti-NGF antibody 138E12-06 (antibody, V domains shown) VH: QVQLQESGPGLVKPSETLSLTCTVSGFSLTGYGVNWIRQPPGKGLEWLGMIWFDGSTDYNTALKSRLTISKDNSKSQVSLKLSSVTAADTAVYYCAREGYYYGTTYYFDYWGQGTTVTVSS VL: DIQMTQSPSSLSASVGDRVTITCRASQDISNYLNWYQQKPGKAPKLLIYYTSRLHSGVPSRFSGSGSGTDYTLTISSLQPEDFATYFCQQGNTLPRTFGGGTKVEIK , give its measured IC50, inhibition of NGF-induced proliferation of TF-1 cell value. 0.125

Indicate the recorded IC50, inhibition of NGF-induced proliferation of TF-1 cell value for this binder: humanized anti-NGF antibody 138E12-05 (antibody, V domains shown) VH: QVQLQESGPGLVKPSETLSLTCTVSGFSLTGYGVNWIRQPPGKGLEWLGMIWFDGSTDYQSALKSRLTISKDNSKSQVSLKLSSVTAADTAVYYCAREGYYYGTTYYFDYWGQGTTVTVSS VL: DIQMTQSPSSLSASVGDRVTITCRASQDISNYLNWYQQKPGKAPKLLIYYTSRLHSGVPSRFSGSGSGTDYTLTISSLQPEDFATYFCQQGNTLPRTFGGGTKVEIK 0.136

Input humanized anti-NGF antibody 138E12-08 (antibody, V domains shown) VH: QVQLQESGPGLVKPSETLSLTCTVSGFSLTGYGVNWIRQPPGKGLEWIGMIWFEGSTDYNSALKSRVTISKDNSKSQVSLKLSSVTAADTAVYYCAREGYYYGTTYYFDYWGQGTTVTVSS VL: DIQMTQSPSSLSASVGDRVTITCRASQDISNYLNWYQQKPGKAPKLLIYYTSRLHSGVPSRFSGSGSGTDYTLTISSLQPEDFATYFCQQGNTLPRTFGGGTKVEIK , output reported IC50, inhibition of NGF-induced proliferation of TF-1 cell. 0.067

Values compiled from patent US20230109780A1.
